Test system: human neutrophils
protocol description: Human neutrophil migration assay
Format: cell-based
condition summary: Homo sapiens, Neutrophil; embelin at EC80 as chemotactic agent; 1 h at 37° C.; read-out: Human neutrophil migration IC50
Procedure: The activity of GPR84 agonists and antagonists can therefore be assayed in a human neutrophil migration assay. […] After 1 h of incubation at 37° C. and 5% CO2, the number of migrated neutrophils in the lower compartment can be quantified by measuring the ATP content using ATPlite™ Luminescence Assay System. […] After incubation, 270 μL of cell lysate is then transferred onto a white 96-well plate for quantification by a luminescence plate reader. […]
pIC50: −log10 of the molar value.
endpoint name: pIC50

Name the reported pIC50 value associated with the molecule "Cc1noc(COc2ccc3c(c2)CCn2c(OC[C@@H]4COCCO4)cc(=O)c(C)c2-3)n1"
7.00 to 11.00

Same again, this time with "Cc1c2n(c(OC[C@@H]3COCCO3)cc1=O)CCc1cc(N3CC(F)C3)ccc1-2"
6.30 to 7.00

Same again, this time with Cc1c2n(c(NCC3CCCO3)cc1=O)CCc1cc(OCC3CC3(F)F)ccc1-2 (stereo not drawn)
6.30 to 7.00

Same again, this time with "Cc1c2n(c(OC[C@@H]3COCCO3)cc1=O)CCc1cc(OS(=O)(=O)C(F)(F)F)ccc1-2"
7.00 to 11.00

Same again, this time with "Cc1c2n(c(OC[C@@H]3COCCO3)cc1=O)CCc1cc(C3=CCN(C(=O)OCC(F)(F)F)CC3)ccc1-2"
7.00 to 11.00

Same again, this time with "Cc1c2n(c(OC[C@@H]3COCCO3)cc1=O)CCc1cc(C#N)ccc1-2"
< 6.00

Same again, this time with "Cc1c2n(c(OC[C@@H]3COCCO3)cc1=O)CCc1cc(NC(=O)C3CC3)ccc1-2"
7.00 to 11.00

Same again, this time with "CCOC(=O)N1CCC(c2ccc3c(c2)CCn2c(OC[C@@H]4COCCO4)cc(=O)c(C)c2-3)CC1"
7.00 to 11.00

Same again, this time with "COc1ccc2c(c1OC)CCn1c(OC[C@@H]3COCCO3)cc(=O)c(C)c1-2"
6.30 to 7.00

Same again, this time with COc1ccc2c(c1OC)CCn1c(NCC3CCCO3)cc(=O)c(C)c1-2 (stereo not drawn)
7.00 to 11.00

Same again, this time with "Cc1c2n(c(OC[C@@H]3COCCO3)cc1=O)CCc1cc(OCC(F)F)ccc1-2"
7.00 to 11.00

Same again, this time with "Cc1c2n(c(NC[C@@H]3COCCO3)cc1=O)CCc1cc(OCC(F)(F)F)ccc1-2"
6.30 to 7.00

Same again, this time with "Cc1c2n(c(OC[C@@H]3COCCO3)cc1=O)CCc1cc(C3CCN(C(=O)OC(C)C)CC3)ccc1-2"
7.00 to 11.00

Same again, this time with COc1c(OCC(F)F)ccc2c1CCn1c(NCC3CCCO3)cc(=O)c(C)c1-2 (stereo not drawn)
6.30 to 7.00

Same again, this time with "Cc1c2n(c(NC[C@@H]3COCCO3)cc1=O)CCc1cc(OCC(F)F)ccc1-2"
7.00 to 11.00

Same again, this time with "Cc1c2n(c(NC[C@@H]3COCCO3)cc1=O)CCc1cc(OCc3ccccc3)ccc1-2"
7.00 to 11.00

Same again, this time with "Cc1c2n(c(OC[C@@H]3COCCO3)cc1=O)CCc1cc(N3CCC3)ccc1-2"
6.30 to 7.00

Same again, this time with "Cc1c2n(c(OC[C@@H]3COCCO3)cc1=O)CCc1cc(C3=CCOCC3)ccc1-2"
7.00 to 11.00

Same again, this time with "COc1cc2c(cc1OC)-c1c(C)c(=O)cc(NC[C@@H]3COCCO3)n1CC2"
< 6.00

Same again, this time with COc1cc2c(cc1OC)-c1cc(=O)cc(NCC3CCCO3)n1CC2 (stereo not drawn)
< 6.00

Same again, this time with "Cc1c2n(c(OC[C@@H]3COCCO3)cc1=O)CCc1cc(OCc3ccccn3)ccc1-2"
7.00 to 11.00

Same again, this time with COc1c(O)ccc2c1CCn1c(NCC3COCCO3)cc(=O)cc1-2 (stereo not drawn)
< 6.00

Same again, this time with "Cc1c2n(c(OC[C@@H]3COCCO3)cc1=O)CCc1cc(OCc3ccccc3)ccc1-2"
7.00 to 11.00

Same again, this time with "Cc1c2n(c(OC[C@@H]3COCCO3)cc1=O)CCc1cc(OCc3cnn(C)c3)ccc1-2"
6.30 to 7.00

Same again, this time with "Cc1c2n(c(OC[C@@H]3COCCO3)cc1=O)CCc1cc(C3CCN(C(=O)OCC(F)(F)F)CC3)ccc1-2"
7.00 to 11.00

Same again, this time with Cc1c2n(c(NCC3CCCCO3)cc1=O)CCc1cc(OCC(F)(F)F)ccc1-2 (stereo not drawn)
7.00 to 11.00

Same again, this time with "Cc1c2n(c(OC[C@@H]3COCCO3)cc1=O)CCc1cc(C3CCOCC3)ccc1-2"
7.00 to 11.00

Same again, this time with Cc1ccc(COc2ccc3c(c2)CCn2c(OCC4CCCCO4)cc(=O)c(C)c2-3)cn1 (stereo not drawn)
7.00 to 11.00

Same again, this time with "Cc1c2n(c(OC[C@@H]3COCCO3)cc1=O)CCc1cc(N3CCN(C(=O)OC(C)(C)C)CC3)ccc1-2"
7.00 to 11.00

Same again, this time with Cc1c2n(c(OCC3CCCCO3)cc1=O)CCc1cc(OCc3ccccn3)ccc1-2 (stereo not drawn)
7.00 to 11.00

Same again, this time with COc1ccc2c(c1O)CCn1c(NCC3COCCO3)cc(=O)cc1-2 (stereo not drawn)
< 6.00

Same again, this time with "Cc1c2n(c(OC[C@@H]3COCCO3)cc1=O)CCc1cc(N3CCN(C(=O)C4CC4)CC3)ccc1-2"
7.00 to 11.00

Same again, this time with Cc1c2n(c(OC[C@@H]3COCCO3)cc1=O)CCc1cc(OCC3CCCOC3)ccc1-2 (stereo partly drawn)
7.00 to 11.00
